Tested on: SK-MEL-5 melanoma
TEST_METHOD_NOTES: NCI-60 one-dose screen, 48 h (100 = growth as untreated, 0 = no growth, -100 = all killed)
CONDITION_DETAILS: 10 µM unless noted
The panel holds about 83,000 compounds, 20% with a hit somewhere; the sample as a whole holds those more often.
The entries below come with measured growth values attached.
Enter your answer as a number in %; do not include the unit.

Cc1cccc2c(=O)c3c(sc12)c(NCCCNCCO)nc1ccccc13 ... 59

**Q:** Missing value: growth, SK-MEL-5 melanoma, entry Oc1c(C(Nc2ccccn2)c2cccc(Oc3ccccc3)c2)ccc2cccnc12 (stereo not drawn) . Fill in?
**A:** -68.1

**Q:** Next compound up: O=C(NC(=S)Nc1cccc(NC(=S)NC(=O)c2ccccc2)c1)c1ccccc1
**A:** 80

**Q:** Entry COc1ccc(C2c3ccc4ccccc4c3Oc3ncn(CCCn4ccnc4)c(=N)c32)cc1OC (stereo not drawn) please
**A:** 63.7

**Q:** Also, O=c1c(-c2nc3ccccc3[nH]2)cc2ccccc2n1Cc1cn(Cc2ccc(F)cc2)nn1 please.
**A:** 6.69

**Q:** Let us now turn to COC(=O)C1(C)COP(=O)(Nc2ccc(OC)cc2)OC1 (stereo not drawn)
**A:** 105

**Q:** Then COc1cc(C(=O)NN=C2c3ccccc3-c3ccccc32)cc(OC)c1OC ?
**A:** 7.14

**Q:** And Cc1nc2ccccc2c(/C=C/c2ccc(F)cc2)c1C(N)=O ?
**A:** 95.9
